Reference for the values: patent US20240002497A1

- system: huNav1.7α + β1 on HEK cells (human, UniProt Q15858 1-1988; Q07699 19-218)
- assay.comment: binding FACS, HEK cells (HEKa/b1)
pEC50: −log10 of the molar value.
readout.name: pEC50

* F0103275B05 (VHH, also called F0103275B05 (parental)-FLAG-HIS6) VHH: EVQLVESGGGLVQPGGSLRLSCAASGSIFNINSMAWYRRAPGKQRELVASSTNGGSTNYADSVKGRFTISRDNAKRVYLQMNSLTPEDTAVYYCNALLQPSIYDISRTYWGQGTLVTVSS | 7.41
* F010301635 (VHH, also called F0103275B05(L11V, R39Q, T83R, V89L)) VHH: EVQLVESGGGVVQPGGSLRLSCAASGSIFNINSMAWYRQAPGKQRELVASSTNGGSTNYADSVKGRFTISRDNAKRVYLQMNSLRPEDTALYYCNALLQPSIYDISRTYWGQGTLVTVSS | 7.51
* F010301654 (VHH, also called F0103275B05(L11V, S33R, R39Q, S50Y, S56D, T83R, V89L, N93R)) VHH: EVQLVESGGGVVQPGGSLRLSCAASGSIFNINRMAWYRQAPGKQRELVAYSTNGGDTNYADSVKGRFTISRDNAKRVYLQMNSLRPEDTALYYCRALLQPSIYDISRTYWGQGTLVTVSS | 7.60
* F010301655 (VHH, also called F0103275B05(L11V, S33R, R39Q, S50Y, S56D, R76N, T83R, V89L, N93R)) VHH: EVQLVESGGGVVQPGGSLRLSCAASGSIFNINRMAWYRQAPGKQRELVAYSTNGGDTNYADSVKGRFTISRDNAKNVYLQMNSLRPEDTALYYCRALLQPSIYDISRTYWGQGTLVTVSS | 7.55
* F010301640 (VHH, also called F0103275B05(R76_V78insT)(L11V, T83R, V89L)) VHH: EVQLVESGGGVVQPGGSLRLSCAASGSIFNINSMAWYRRAPGKQRELVASSTNGGSTNYADSVKGRFTISRDNAKRTVYLQMNSLRPEDTALYYCNALLQPSIYDISRTYWGQGTLVTVSS | 7.19
